- SUBJECT_OF_TEST: casein kinase 1ε (Homo sapiens)
pKi: −log10 of the molar value.
Please note: Condition met applies when pKi is 6 or greater, and Condition not met applies otherwise.

Solved cases below.
MOLECULE | CLASS
NC(=O)c1[nH]c2cc(CN(Cc3ccc([N+](=O)[O-])o3)Cc3ccc([N+](=O)[O-])o3)ccc2c1Sc1ccccc1 | Condition not met
NC(=O)c1[nH]c2ccc(CN3CCCNCC3)cc2c1Sc1ccccc1 | Condition met
NC(=O)c1[nH]c2ccc(CN3CCC(CO)CC3)cc2c1Sc1ccccc1 | Condition not met

With those in mind, consider the next molecule.
Qu. Quick check: does `NC(=O)c1[nH]c2ccc(CNc3ccc4ncccc4c3)cc2c1Sc1ccccc1` have pKi greater than or equal to 6?
Ans. Condition met

====

- Tested on: Mper1-luc Rat-1 fibroblasts (P2C4)
- METHOD_SUMMARY: Cellular Circadian Assay (Mper1-luc reporter period lengthening)
- Assay type: cell-based
- DETAILS: effective micromolar concentration that induces a 1 hour lengthening of period
Measured Cell Assay ECΔτ1h, listed per entry.

Consider the following illustrative entries.
COMPOUND | Cell Assay ECΔτ1h
NC(=O)c1[nH]c2ccc(CN3CCN(c4ncccn4)CC3)cc2c1Sc1ccccc1 | 1.87 µM
NC(=O)c1[nH]c2ccc(CN3CCCNCC3)cc2c1Sc1ccccc1 | 7.85 µM
CC(C)(C)OC(=O)N1CCCN(Cc2ccc3[nH]c(C(N)=O)c(Sc4ccccc4)c3c2)CC1 | >10 µM
NCc1ccc2[nH]c(C(N)=O)c(Sc3ccccc3)c2c1 | 0.44 µM
NC(=O)c1[nH]c2ccc(CN3CCN(CC=Cc4ccccc4)CC3)cc2c1Sc1ccccc1 | >3 µM
CCCCCNCc1ccc2[nH]c(C(N)=O)c(Sc3ccccc3)c2c1 | 4.55 µM
NC(=O)c1[nH]c2ccc(CNc3ccccc3F)cc2c1Sc1ccccc1 | 6.91 µM

Qu. Reported Cell Assay ECΔτ1h, compound NC(=O)c1[nH]c2ccc(CNC3CC4CCC3C4)cc2c1Sc1ccccc1 (centres unmarked) : ____
Ans. 2.70 µM

====

- SUBJECT_OF_TEST: casein kinase 1ε (Homo sapiens, UniProt P49674)
- Sequence (P49674 whole entry): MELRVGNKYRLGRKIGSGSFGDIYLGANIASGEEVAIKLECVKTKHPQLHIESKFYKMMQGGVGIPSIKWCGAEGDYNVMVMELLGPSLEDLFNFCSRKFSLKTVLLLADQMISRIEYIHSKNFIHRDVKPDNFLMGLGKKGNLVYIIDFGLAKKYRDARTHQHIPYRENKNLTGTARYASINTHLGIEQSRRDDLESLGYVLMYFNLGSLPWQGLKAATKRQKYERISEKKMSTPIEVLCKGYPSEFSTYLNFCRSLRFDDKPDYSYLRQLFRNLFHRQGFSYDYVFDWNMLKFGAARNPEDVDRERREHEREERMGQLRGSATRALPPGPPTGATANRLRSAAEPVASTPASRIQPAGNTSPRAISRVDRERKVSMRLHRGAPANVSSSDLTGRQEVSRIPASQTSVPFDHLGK
Doc: threshold 400 nM (exclusive). Items with Ki beneath it return criterion met; others return criterion not met.

The examples below pair each entry with its known result.
COMPOUND | CLASS
NC(=O)c1[nH]c2cc(CNCc3ccc([N+](=O)[O-])s3)ccc2c1Sc1ccccc1 [IIal] | criterion not met
CC(C)(C)OC(=O)N1CCCN(Cc2ccc3[nH]c(C(N)=O)c(Sc4ccccc4)c3c2)CC1 [Ir] | criterion met

Qu. Please determine if CCCCNCc1ccc2[nH]c(C(N)=O)c(Sc3ccccc3)c2c1 [Ik] is below 400 nM in terms of Ki.
Ans. criterion met

Qu. Say whether its Ki is strictly beneath 400 nM. Entry: NC(=O)c1[nH]c2ccc(CNc3ccccc3F)cc2c1Sc1ccccc1 [Iai]
Ans. criterion not met

====

- SUBJECT_OF_TEST: casein kinase 1ε (Homo sapiens)
Note to self: class = bucket of Ki, per c1 = under 0.3 µM, c2 = from 0.3 µM up to 0.8 µM, c3 = 0.8 µM and over

MOLECULE | CLASS
NC(=O)c1[nH]c2ccc(CN3CCC4(CC3)OCCO4)cc2c1Sc1ccccc1 [Iz] | c2
NC(=O)c1[nH]c2cc(CN(C/C=C/c3ccco3)C/C=C/c3ccco3)ccc2c1Sc1ccccc1 [IIag] | c3
NC(=O)c1[nH]c2cc(CNCc3ccc(-c4ccccc4Cl)o3)ccc2c1Sc1ccccc1 [IIar] | c3
NC(=O)c1[nH]c2cc(CNCc3cccc(Oc4ccccc4)c3)ccc2c1Sc1ccccc1 [IIx] | c3

Qu. Looking at NC(=O)c1[nH]c2ccc(CN3CCN(CC=Cc4ccccc4)CC3)cc2c1Sc1ccccc1 [Iq] , which class would you pick?
Ans. c2

Qu. Dear colleague, I would appreciate it if you could identify the bin for NC(=O)c1[nH]c2cc(CNC(=O)[C@@H](N)Cc3ccccc3)ccc2c1Sc1ccccc1 [IIt] and reply at your convenience.
Ans. c3

Qu. Into which bin does this molecule go? COc1ccccc1CNCc1ccc2c(Sc3ccccc3)c(C(N)=O)[nH]c2c1 [IIac]
Ans. c1

Qu. Which Ki category applies to NC(=O)c1[nH]c2cc(CNCc3ccccc3)ccc2c1Sc1ccccc1 [IIc] here?
Ans. c2

Qu. For COc1ccc(CNCc2ccc3c(Sc4ccccc4)c(C(N)=O)[nH]c3c2)cc1OCc1ccccc1 [IIak] , which Ki bin applies?
Ans. c2

Qu. Bin? CNCc1ccc2c(c1)c(Sc1ccccc1)c(C(N)=O)n2C [Ig]
Ans. c3
